B1: LINE1-mini (parent)
chain: GGCAGAGCUCAACACAGCGUGGCAAAGUGGCUGUGGCUAGACUGCC

Variants of: B1
Assay: self-cleavage, relative activity (ratio to wild type); higher = more cleavage; in vitro, sequencing; the parent is a self-cleaving ribozyme
measurement-name: self-cleavage
Keep it simple and answer with nothing but the number.

mutation-spec | self-cleavage
C23U U28G | 0.6
C15A C45A | 0.08
G21U G27C | 0.54
G36A A41G | 0.2
U34C A39C | 0.09

Name the reported self-cleavage value associated with the variant G2A G36C
0.28

Look up self-cleavage: G1C A11C
0.01
